Data credit: PubChem BioAssay AID463193

experimental_details: autophagy modulators in MEF cells, primary screen, imaging, high-content, MEF GFP-LC3 (AID 463193)
stated_conditions: MEF GFP-LC3 puncta imaging, at 10 µM
Hit rate of the full screen: of about 190,000 compounds, about 1,900 (1%) were called active.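 How the source made its calls: active means percentage of spot-positive cells more than 3 SD above its plate mean, without a fluorescence outlier flag or 80% toxicity; inconclusive means no clear call, values can overlap the other calls; inactive means the rest.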 This excerpt belongs to a sample that is enriched for actives.
I would appreciate it if you answered using one of these outcomes: active, inactive

See these solved cases before continuing.
[[record]]
molecule = "CCc1nnc(NC(=O)/C=C/c2ccc(C)o2)s1"
cat = "inactive"

[[record]]
molecule = "CC(C)(C)NC(=O)CN(C(=O)c1csnn1)c1ccccc1-c1ccccc1"
cat = "active"

[[record]]
molecule = "CCc1cccc(NC(=O)CCC(=O)O)c1"
cat = "inactive"

[[record]]
molecule = "Cc1ccc(/C=C/C(=O)Nc2ccc([N+](=O)[O-])c(NC(=O)/C=C/c3ccc(C)o3)c2)o1"
cat = "active"

[[record]]
molecule = "CCOc1ccc(Br)cc1S(=O)(=O)N1CCC(C(=O)O)CC1"
cat = "inactive"

[[record]]
molecule = "Cc1c(NC(=O)/C=C/C(=O)O)cccc1[N+](=O)[O-]"
cat = "inactive"


Okay, now this molecule:
Qu. How did this test come out for CCNC(=O)COC(=O)/C=C/c1c(C)nn(Cc2cccc(OC)c2)c1Cl ?
Ans. inactive

---

experimental_details: autophagy modulators in MEF cells, primary screen, imaging, high-content, MEF GFP-LC3 (AID 463193)
stated_conditions: MEF GFP-LC3 puncta imaging, at 10 µM
The campaign covered roughly 190,000 compounds. About 1,900 (1%) were called active.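 The calls were made as follows: active = percentage of spot-positive cells more than 3 SD above its plate mean, without a fluorescence outlier flag or 80% toxicity; inconclusive = no clear call, values can overlap the other calls; inactive = the rest.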 Only a selection was taken, and actives are over-represented in it overall.
Your reply should match one of these outcome classes. YES for active, NO for inactive

[[record]]
compound = "Cc1ccc(CC(=O)Nc2ccc(OC(F)F)c(Cl)c2)cc1C"
cat = "NO"

[[record]]
compound = "Cc1cccc(OCCNC(=S)NC(=O)c2cccnc2)c1"
cat = "NO"

[[record]]
compound = "O=C(CSc1nc2ccccc2c(=O)n1CCCO)N1CCc2ccccc21"
cat = "NO"

[[record]]
compound = "CC(=O)NC1=NN(C(C)=O)C(C)(CCS(=O)(=O)c2ccc(Cl)c(Cl)c2)S1 (stereo not given)"
cat = "NO"

[[record]]
compound = "Cn1c(C(=O)NCCCN2CCN(c3cccc(Cl)c3)CC2)cc2c(=O)n(C)c3ccccc3c21"
cat = "NO"


Qu. Hi team, can someone confirm the assay call for Cn1c(SCC(=O)N2CCCc3ccccc32)nc2ccccc2c1=O ?
Ans. YES

Qu. Query: recorded result category for COc1ccc(C(=O)NNc2cc(C)nc(NNC(=O)c3ccc(OC)cc3)n2)cc1 in this test
Ans. NO

Qu. Short answer needed: outcome of this test for CC(Nc1nc(N2CCOCC2)nc2ccccc12)c1ccccc1 (stereo not given) ?
Ans. NO

Qu. // outcome(item) with item = CSc1nc2ccccc2cc1/C=C(\C#N)c1ccc(Cl)cc1Cl
Ans. YES

Qu. Which result was noted for this compound in the test: CCn1c(=O)cc(OCC(=O)NCCCN2CCN(c3cccc(Cl)c3)CC2)c2ccccc21
Ans. YES

---

experimental_details: autophagy modulators in MEF cells, primary screen, imaging, high-content, MEF GFP-LC3 (AID 463193)
stated_conditions: MEF GFP-LC3 puncta imaging, at 10 µM
Among all 190,000 compounds or so, about 1,900 (1%) were called active.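 Rule for the calls: active = percentage of spot-positive cells more than 3 SD above its plate mean, without a fluorescence outlier flag or 80% toxicity; inconclusive = no clear call, values can overlap the other calls; inactive = the rest.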 This is one part of a sample in which actives are shown more often than they occur.
// allowed return values: active, inactive

[[record]]
molecule = "COc1ccc(NC(=O)N2CCC(Cc3ccccc3)CC2)cc1"
cat = "inactive"

[[record]]
molecule = "Cc1ccc(CC(=O)Nc2cccc(C#N)c2)cc1"
cat = "inactive"

[[record]]
molecule = "Cc1ccccc1CN1C[C@@H]2C[C@@H](c3ccc4nsnc4c3)N3CCC[C@@]23C1=O"
cat = "active"

[[record]]
molecule = "O=C(Nc1nc2ccc([N+](=O)[O-])cc2s1)c1ccc(S(=O)(=O)N2CCCc3ccccc32)cc1"
cat = "inactive"

[[record]]
molecule = "O=C(NC(Nc1nc2ccc([N+](=O)[O-])cc2s1)(C(F)(F)F)C(F)(F)F)c1ccccc1"
cat = "active"


Qu. Can you look up the reported call for COC(=O)NNC1=CC(=O)CC(C)(C)C1 for me?
Ans. inactive

Qu. So what was the verdict on OCC1(CCc2ccccc2)CCN(Cc2ccc3nsnc3c2)CC1 in this test?
Ans. inactive

Qu. Which result was noted for this molecule in the test: CCn1nc(C)c(/C=N/NC(=O)Cc2ccc(Cl)cc2)c1C
Ans. inactive

Qu. I would be grateful if you could indicate the recorded call for Cc1ccc(N=Cc2c(O)cc(C)oc2=O)c(C)c1 .
Ans. inactive

Qu. What did the test return for COC(=O)COc1ccc(C2NC(=O)NC(C)=C2C(=O)NCc2ccccc2)cc1OC (stereo not drawn) ?
Ans. inactive

Qu. Could you please tell me the result logged for CCCCN(CC(=O)NC(C)(C)C)C(=O)C(=O)Nc1ccc2c(c1)OCCO2 in this assay?
Ans. inactive

Qu. How was Cc1cc([N+](=O)[O-])nn1Cc1ccc(F)cc1 classified in this test?
Ans. inactive

Qu. Give the logged outcome of this assay for the following molecule: NC(=O)c1ccc(CN2CCC(Cc3ccccc3)CC2)cc1
Ans. inactive

Qu. Called result for COc1ccc(N=Cc2c(O)[nH]c3ccccc23)cc1OC
Ans. inactive

Qu. What classification did O=c1[nH]c(=S)[nH]c2[nH]c(=S)[nH]c12 end up with in this test?
Ans. inactive

Qu. Tell me the assay call for O=C(/C=C/c1cn(-c2ccccc2)nc1-c1ccc2c(c1)OCCO2)NCCCN1CCOCC1 please.
Ans. inactive

Qu. Per the assay record, what outcome was assigned to CCCC(=O)NC(=S)Nc1ccc(CN2CCOCC2)cc1 ?
Ans. inactive

Qu. // outcome(item) with item = CC(C)(C)CC(C)(C)NCC(O)COCCOc1ccc(Br)cc1 (stereo not drawn)
Ans. inactive

Qu. Query: recorded result category for Cc1cc(C(=O)N/N=C/c2cc([N+](=O)[O-])cc(C)c2O)n[nH]1 in this test
Ans. inactive

Qu. Which result was noted for this molecule in the test: COc1cc(N=Cc2c(O)[nH]c3ccccc23)cc(OC)c1OC
Ans. inactive

Qu. I'd appreciate the recorded outcome for COc1ccc(OC)c(N=Cc2c(O)[nH]c3ccccc23)c1 from this test.
Ans. active

Qu. Which outcome was entered for the molecule Cc1ccc(N=Cc2c(O)n(-c3nccs3)c(=O)c3ccccc23)c(C)c1 in this test?
Ans. active

Qu. // return assay outcome for CC(C)(C)NC(=O)NC(=O)CN1CCC(Cc2ccccc2)CC1
Ans. active
